As shown below, each of these binders has a reported variant/HC_D62R value.
Target: T1, human tissue factor pathway inhibitor (TFPI) (human, UniProt P10646 29-304, limits assumed)
T1 construct: bought; also called hTFPI; human TFPI
T1 sequence (looked up): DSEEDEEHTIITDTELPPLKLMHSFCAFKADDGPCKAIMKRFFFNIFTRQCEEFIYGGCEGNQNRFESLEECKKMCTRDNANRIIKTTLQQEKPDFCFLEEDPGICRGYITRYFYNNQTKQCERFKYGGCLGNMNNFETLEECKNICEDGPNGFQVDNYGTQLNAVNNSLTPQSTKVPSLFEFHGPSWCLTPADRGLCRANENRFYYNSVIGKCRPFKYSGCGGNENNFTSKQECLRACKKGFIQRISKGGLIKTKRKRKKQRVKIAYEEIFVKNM
Assay: competitive ELISA
Unit ratio implied. Number only.

Prompt line: Item under review: 4B7 HC D62R+H107M+Y112D/LC D33F+N35I (Fab, V domains shown) VH: QVQLQQSGPGLVKPSQTLSLTCAISGDSVSSNSAAWSWIRQSPGRGLEWLGIIYKRSKWYNRYAVSVKSRITINPDTSKNQFSLQLNSVTPEDTAVYYCARWHSDKMWGFDDWGQGTLVTVSS VL: DIVMTQSPLSLPVTPGEPASISCRSSQSLVFSFGITYLNWYLQKPGQSPQLLIYKGSNRASGVPDRFSGSGSGTDFTLKISRVEAEDVGVYYCQQYDSYPLTFGQGTKVEIKR . Reported variant/HC_D62R?
Response line: 20

Prompt line: Item under review: 4B7 HC N32D+D62R+Y112D/LC S32R+D33F+N35I+L42Q+D97T (Fab, V domains shown) VH: QVQLQQSGPGLVKPSQTLSLTCAISGDSVSSDSAAWSWIRQSPGRGLEWLGIIYKRSKWYNRYAVSVKSRITINPDTSKNQFSLQLNSVTPEDTAVYYCARWHSDKHWGFDDWGQGTLVTVSS VL: DIVMTQSPLSLPVTPGEPASISCRSSQSLVFRFGITYLNWYQQKPGQSPQLLIYKGSNRASGVPDRFSGSGSGTDFTLKISRVEAEDVGVYYCQQYTSYPLTFGQGTKVEIKR . Reported variant/HC_D62R?
Response line: 26.9

Prompt line: Item under review: 4B7 HC N32D+D62Q+H107M+Y112D/LC F31I+S32R+D33R+N35I+D97T (Fab, V domains shown) VH: QVQLQQSGPGLVKPSQTLSLTCAISGDSVSSDSAAWSWIRQSPGRGLEWLGIIYKRSKWYNQYAVSVKSRITINPDTSKNQFSLQLNSVTPEDTAVYYCARWHSDKMWGFDDWGQGTLVTVSS VL: DIVMTQSPLSLPVTPGEPASISCRSSQSLVIRRGITYLNWYLQKPGQSPQLLIYKGSNRASGVPDRFSGSGSGTDFTLKISRVEAEDVGVYYCQQYTSYPLTFGQGTKVEIKR . Reported variant/HC_D62R?
Response line: 20.2
